Experiment: yeast display, Sf9 membrane polyspecificity reagent, FACS + sequencing; frameworks hold sequencing errors
Measure: polyreactivity (PSR sort gate)

Sequence string	Measure	Assay result
QVQLVESGGGLVQAGGSLRLSCAASGSTLGAYAMGWYRQAPGKERELVAAISRSGGNTYYADSVKGRFTISRDNAKNTVYLQMNSLKPEDTAVYYCAAVKLFLGLCYDYWGQGTQVTVSS	polyreactivity (PSR sort gate)	low polyreactivity
QVQLVESGGGLVQAGGSLRLSCAASGSIFVYNDMGWYRQAPGKERELVAGIDWSGDRTYADSVKGRFTSSRDNAKNTVYLHMNSLKPEDTAVYYCNADEWRWDEIIPYAVDYWGQGTQVTVSS	polyreactivity (PSR sort gate)	low polyreactivity
QVQLVESGGGLVQAGGSLRLSCAASGRTFDLNDMGWYRQAPGKERELVAGINSGGSTKYADSVKGRFTISRDNAKNTVSLQMNSLKPEDTAVYYCATRWPGGSRWPFYLTYDYWGQGTQVTVSS	polyreactivity (PSR sort gate)	low polyreactivity

====

Experiment: yeast display, Sf9 membrane polyspecificity reagent, FACS + sequencing; frameworks hold sequencing errors
Measure: polyreactivity (PSR sort gate)

Sequence string	Assay result
QVQLVESGGGLVQAGGSLRLSCAASGFTFHYYAMGWYRQAPGKERELVAAISRGGGNTYYADSVKGRFTISRDNAKNTVYLQMNSLKPEDTAVYYCAADSKYRFSHGLDYWGQGTQVTVSS	high polyreactivity
QVQHVESGGGLVQAGGSLRLSSAASGSIIGYYAMGWYRQAHGKERELVAAITWSGGRTYYADSVKGRFTISRDNAKNTVYFQMNSLKPEDTAVYYSNAANSRSAYYNWGHGTQVTVSS	high polyreactivity

====

Experiment: yeast display, Sf9 membrane polyspecificity reagent, FACS + sequencing; frameworks hold sequencing errors
Measure: polyreactivity (PSR sort gate)

Sequence string	Measure	Assay result
QVQLVESGGGLVQAGGSLRLSCAASGLTFVVYAMGWYRPAPGKERELVAASDFSGGDTYYADSVKGRFTISRDNAKNTVYLQRNSLKPEDTADYYCAAEYYGPSYYIGFDYWGQGTQVTVSS	polyreactivity (PSR sort gate)	high polyreactivity
QVQLVESGGGLVQAGGSLRLSCAASGRTFSGYAMGWYRQAPGKERELVAAITSSGSSTYYADSVKGRFTISRDNAKNTVYLQMNSLKPEDTAVYYCAATPQAHSERYYYQRKYDYWGQGTQVTVSS	polyreactivity (PSR sort gate)	low polyreactivity
QVQLVESGGGLVQAGGSLLLTCAASSSTFRPKVMGWYRQAPGKERELVAAISNGGRTYYADSLKGRFTISRDNAKNTVYLQMNSLKPEDTAVYYCAARGKTTKYNYWGQGTQVTVSS	polyreactivity (PSR sort gate)	high polyreactivity
QVQLVESGGGFVQAGGSLRLSCAASGFTFWRYTMGWYRQAPGKERELVAAINWSGGRTYYADSVKARFTISRDNAKNTVYLQMNSLTPEDTAVYYCATGYSTSVGGSQGDSWGQGTQVTVSS	polyreactivity (PSR sort gate)	high polyreactivity
QVQLVESGGGLVQAGGRLRLGCAASGSTYLYNAMGLYRQAPGKERELVAAISWTGGSTYYADSVKARYTISRDNAKNTVYLQMNSLKPEDTAVYYCNSLSVPDYDYWGHGTQVTVSS	polyreactivity (PSR sort gate)	high polyreactivity

Which polyreactivity (PSR sort gate) is listed for QVQLVESGGGLVQAGGSLRLSCAASGSTFPYAMGWYTQAPGKEREFVAAITRSGGSTYYADSVKGRFTISRDNAKNTVYLQMNSLKPEDTAVYYATQRCVWGYHYWGQGTQVTVSS ?
high polyreactivity

Which polyreactivity (PSR sort gate) is listed for QVQHVESGGGLVQAGGSLRLSCAASVITFYGYTMGWYRQAPGKERELVARIRSRSTSTYYADSVKGRFTISRDNAKNTVDLQMNSLKPEDTAVYYCNADYTNPGSYRKYDYWGQGTQVTVSS ?
low polyreactivity

Which polyreactivity (PSR sort gate) is listed for QVQLVESGGGLVQAGGSLRLSSAASGSIFQYYTMGWYRQAPGKERELVASISSDGSTYYADSVKGRFTISRDNAKNTVYLQMNSLKPEDTAVYYCADVLWEPPVHPGYDYWGQGTQVTVSS ?
low polyreactivity

Which polyreactivity (PSR sort gate) is listed for QVQHVESGVGLVQAVGSLRLSCAASGLTIDYNAMGWDRQAPVKERELVAAISWSGGSTYYADSLKGRFTISRDNAKNTVYLQMNSLKPEDNAVYYCNALPHIVIGGIICYEYWGQGTQVTVSS ?
high polyreactivity

Which polyreactivity (PSR sort gate) is listed for QVQLVESGGGLVQAGGSLRLSCAASGLTFYRNAMGWYRQAPGKERELVAAITSRGGSTYYADSVKGRFTISRDNAKNTVYLQMNSLKPEDTAVYYCAAYSTLITGRDYGYWGQGTQVTVSS ?
high polyreactivity

Which polyreactivity (PSR sort gate) is listed for QVQLVESGGGLDQAGGSLRLSCAASGSTSPYYTMGWYRQAPGKERELVASINESGGSTYYADSVKGRFTISRDNAKNTVYLLMNSLKPEDTAVYYCNAEYTTPSYPVYRIDYYWFDYWGQGTQVTVSS ?
low polyreactivity

====

Assay: yeast display, Sf9 membrane polyspecificity reagent, FACS + sequencing; frameworks hold sequencing errors
Measure: polyreactivity (PSR sort gate)

Examples with their reported polyreactivity (PSR sort gate) follow.
Sequence string	polyreactivity (PSR sort gate)
QVQLVESGGGLVQAGGSLRLSCAASGGIFTPYAMGWYIQAPGKEREFVAGIRWSGVSTSYADSVKGRFTISRDNAKNTVYFQMNSLKPEDTAVSYCAATTHRWWVTFDYWGQGTQVTVSS	low polyreactivity
QVQLVESGGGLVQAGGSLRLSCAASGYIFSYYAMGWYRQAPGKEREFVAAIRWRGGSTYYADSVKGRFTISRDNAKNTVYLQMNSLKPEDTAVYYCAAGPGTSYYWGQGTQVTVSS	high polyreactivity
QVQLVESGGGLVQAGGSLRLSCAASGSTFRANLMGRYRQAPGKERELVAAITSAGGSTYYADSVKGRFTISRDNAKNTVYIQMNSLKPEDTAVYYCNKQERPGPGRARYNYWGQGTQVTVSS	high polyreactivity
QVQHLESGGGLVQAGGSLRLSCVASGLTQPYAMRWYRQAPGKERQLVAAITGGDGSTTYADSVKGRFTISRVNAKNTVYLQMNSLKPEDTAVYYCNADTARKYAESQFYHWGQGTQVSVSS	low polyreactivity
QVQLVESGGGLVQAGGSLRLSCAASGSTFVTNAMGWYSQAPGKEREFVAAISNSSGSTYYADSVKGRFTISRDNAKNTVYLQMNSLKPEDTAVYYCNATPDDWLQEDYWGQGTQVTVSS	low polyreactivity

Which polyreactivity (PSR sort gate) is listed for QVQLVESGGGLVQAGGSLRLSCAASGSTFPWNAMGWYRQAPGKERELDAAIRTGGGRTYYADSVKGRFTISRDNAKNTVYLQMNSLKPEDTAVYYCNAYQSSGRYRNSYGYWGQGTQVTVSS ?
high polyreactivity

Which polyreactivity (PSR sort gate) is listed for QVQLVESGGGLVQAGGSLRLSCAASGRILPSNAMGWYRQSPGKERELVATISSSGGDTYYADSVKGRFTISRDNAKNTVYLQMNSLKPEDTAGYYCAADSTWEGGYKYEYWGQGTQVTVSS ?
low polyreactivity

Which polyreactivity (PSR sort gate) is listed for QVQLVESGGGLVQAGGSLRLSCAASGIIFAAYVMGWYRQAPGKERELVAAISKSGGRTYYADSVKGRFTISRDNAKNTVYLQMNSLKPEDTAVYYCATDVRVGHIRDYDYWGQGTQVTVSS ?
high polyreactivity

Which polyreactivity (PSR sort gate) is listed for QVQLVESGGGLVQAGGSLRLSCAASGSTIPWYAMGWYRQAPGKEREFVAAISWSSGRTYYADSVKGRFTISRDNAKNTVYLQMNSLKPEDTAVYYCAARQWAYYRDVEMGYWGQGTQVTVSS ?
high polyreactivity

Which polyreactivity (PSR sort gate) is listed for QVQLVESGGGLVQAGGSLRVSCAASGRIFVDYAMGWYRQAPGKERELVAAISRRGGSTYYADSVKGRFTISRDNAKNTVYLQMNSLKPEDTAVYYCNALVNSGGGYGATEYDYWGQGTQVTVSS ?
high polyreactivity

Which polyreactivity (PSR sort gate) is listed for QVQLVESGGGLVQAGGSLRLSCAASGFTFTDNAMGRYRQAPGKERELVAAISEGSGITYYADSVKGRFTISRDNAKNTVYLQMNSLKPEDTAVYYCAADWLSKYDYWGQGTQVTVSS ?
low polyreactivity

Which polyreactivity (PSR sort gate) is listed for QVKLVESGGGLVQAGCSLRLTCAASGSTSDMKAMGWYRQAPGKERELVAAISYSGGSTYYADSVKGRFTMSRDNAKNTVYLQMNSLKPEDTAVYYCAKQVADRYDYWGQGTEVTVSS ?
low polyreactivity

====

Assay: yeast display, Sf9 membrane polyspecificity reagent, FACS + sequencing; frameworks hold sequencing errors
Measure: polyreactivity (PSR sort gate)

Examples with their reported polyreactivity (PSR sort gate) follow.
Sequence string	Measure	Assay result
QVQLVESGGGLVQSGGSLRLSCAASGSTIPSYALGWYRHAPGKERELVASITYSDGTTSYADSVKGRFTISRDNAKNTVYLQMNSLKPEDTAVYYCNAVYYREGMDYWGQGTQVTVSS	polyreactivity (PSR sort gate)	low polyreactivity
QVQLVETGGGLVQAGGSLRLSCAASGFTFASYAMGWYRQAPGKERELVAAITWGTGTTSYADSVKGRFTISRDNAKNTVYLQMNSLKPEDTAVYYCATRYRQITYRRRYDYWGQGTQVTVSS	polyreactivity (PSR sort gate)	low polyreactivity
QVQLVESGGGLVQAGGRLRISCAASGSIFYLYARGWYRQAPGKERELVPVITGSGGSTYYADSVKGRFTISRDNSKYTVYLQMNSLKPVDTAVYYGAADYYWGYDWGQGTQVTVSS	polyreactivity (PSR sort gate)	low polyreactivity
QVHLVESGGGLVQAGRSLRLSCAASGITFVKYAMGCYIQAPGKEMELVATISNSGGSTYYSDSVKGRFTISRDNAKNSVYLQMNSLKPEETAVYYCNALYLVYCDDSSPSLVSEYGYWGQGTQVTVSS	polyreactivity (PSR sort gate)	low polyreactivity

Query sequence follows.
Which polyreactivity (PSR sort gate) is listed for QGQLVESGGGLVQAGGSLRLSCAASGFIFSSNAMGLYRHAPGKERELVAAISSSGGNTYYADSVKGRFTISRDNAKKTVDLQMNSLKPEDTAVYYCAADLSSAYGHDYWGLGTQVTVSS ?
low polyreactivity
